assay: CCTE_Mundy_HCI_Cortical_Synap_Neur_Matur_NeuriteSpotCountPerNeuron: CCTE's Synaptogenesis and Neurite Maturation Assay in rat cortical cells for Neurite Spot Count per Neuron Count, Mundy Lab (AID 2284215)
The source made the active and inactive calls. How the source made its calls: active means hit-call score of the fitted dose curve at least 0.9, where 1 is the maximum; inactive means score below 0.9.
Outcome codes: T for active, F for inactive

>  <Smiles code>
COc1cc2c(c(OC)c1OC)-c1ccc(OC)c(=O)cc1[C@@H](NC(C)=O)CC2

>  <Class label>
T

$$$$
>  <Smiles code>
Cn1cc[nH]c1=S

>  <Class label>
F

$$$$
>  <Smiles code>
NC(=O)N1c2ccccc2C=Cc2ccccc21

>  <Class label>
F

$$$$
>  <Smiles code>
C[C@]12C=CC(=O)C=C1CC[C@H]1[C@@H]3C[C@@H](O)[C@](O)(C(=O)CO)[C@@]3(C)C[C@H](O)[C@@]12F

>  <Class label>
T

$$$$
>  <Smiles code>
OC(Cn1cncn1)(Cn1cncn1)c1ccc(F)cc1F

>  <Class label>
F

$$$$

Values were extracted from PubChem BioAssay (EPA / NIEHS).
